System: 855422-203-R-J1-PDC spheroids with HUVEC/MSC, viability;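 note: agents incubated with spheroids for one week before read-out; 100% = DMSO vehicle-treated control wells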
Assay: Anticancer human tumor 855422-203-R-J1-PDC patient-derived bladder carcinoma cell line growth inhibition [PI3K]
Conditions: second compound 0.316 µM; first compound 1 µM; hits give low values
Text: Combinatorial screen of targeted agents with the PI3K inhibitors inavolisib, alpelisib, duvelisib, and copanlisib in multi-cell type tumor spheroids A high-throughput screen of multi-cell type tumor spheroids was designed to identify active combinations of targeted small molecules and PI3K pathway inhibitors. […] Compounds. […] If the clinical Cmax for an agent had not been determined, the highest concentration tested was 10 microM. […]
Reported values of viability, T/C for individual entries
I only need the number, in %, no unit after it.

COMPOUND	viability, T/C, %
Cn1ncc(Cl)c1-c1cc(C(=O)NC(CN)Cc2cccc(F)c2)sc1Cl (stereo not given) + CC(Nc1ccc2c(c1)OCCn1cc(N3C(=O)OCC3C(F)F)nc1-2)C(N)=O	39.2
CC1(C)CCC(Nc2ncc(C(F)(F)F)c(-c3c[nH]c4c(P(C)(C)=O)c(C#N)ccc34)n2)CN1 (stereo not given) + CC(Nc1ccc2c(c1)OCCn1cc(N3C(=O)OCC3C(F)F)nc1-2)C(N)=O	15.5
CC(C)NCC(C(=O)N1CCN(c2ncnc3c2C(C)CC3O)CC1)c1ccc(Cl)cc1 (stereo not given) + COc1c(OCCCN2CCOCC2)ccc2c3n(c(=NC(=O)c4cnc(N)nc4)nc12)CCN3	10.5
CCN1CCN(Cc2ccc(Nc3ncc(F)c(-c4cc(F)c5nc(C)n(C(C)C)c5c4)n3)nc2)CC1 + Cc1nc(NC(=O)N2CCCC2C(N)=O)sc1-c1ccnc(C(C)(C)C(F)(F)F)c1	28.2
CNC(=O)c1ccc(N2C(=S)N(c3ccc(C#N)c(C(F)(F)F)c3)C(=O)C2(C)C)cc1F + CC(Nc1ncnc2nc[nH]c12)c1cc2cccc(Cl)c2c(=O)n1-c1ccccc1	80.2
CC1(C)CCC(CN2CCN(c3ccc(C(=O)NS(=O)(=O)c4ccc(NCC5CCOCC5)c([N+](=O)[O-])c4)c(Oc4cnc5[nH]ccc5c4)c3)CC2)=C(c2ccc(Cl)cc2)C1 + COc1c(OCCCN2CCOCC2)ccc2c3n(c(=NC(=O)c4cnc(N)nc4)nc12)CCN3	9.33
CC1(C)CCC(Nc2ncc(C(F)(F)F)c(-c3c[nH]c4c(P(C)(C)=O)c(C#N)ccc34)n2)CN1 (stereo not given) + CC(Nc1ncnc2nc[nH]c12)c1cc2cccc(Cl)c2c(=O)n1-c1ccccc1	27.5
C[C@@H](NC(=O)c1ncnc(N)c1Cl)c1ncc(C(=O)Nc2cc(C(F)(F)F)c(Cl)cn2)s1 + Cc1nc(NC(=O)N2CCCC2C(N)=O)sc1-c1ccnc(C(C)(C)C(F)(F)F)c1	85.8

Asked: What value of viability, T/C has been recorded for this entry: C#Cc1c(F)ccc2cc(O)cc(-c3ncc4c(N5CC6CCC(C5)N6)nc(OCC56CCCN5CC(F)C6)nc4c3F)c12 (stereo not given) + CC(Nc1ncnc2nc[nH]c12)c1cc2cccc(Cl)c2c(=O)n1-c1ccccc1
Given back: 102

Asked: What value of viability, T/C has been recorded for this entry: CCCS(=O)(=O)Nc1ccc(F)c(C(=O)c2c[nH]c3ncc(-c4ccc(Cl)cc4)cc23)c1F + Cc1nc(NC(=O)N2CCCC2C(N)=O)sc1-c1ccnc(C(C)(C)C(F)(F)F)c1
Given back: 85.3

Asked: What value of viability, T/C has been recorded for this entry: CC1(C)CCC(Nc2ncc(C(F)(F)F)c(-c3c[nH]c4c(P(C)(C)=O)c(C#N)ccc34)n2)CN1 (stereo not given) + Cc1nc(NC(=O)N2CCCC2C(N)=O)sc1-c1ccnc(C(C)(C)C(F)(F)F)c1
Given back: 22

Asked: What value of viability, T/C has been recorded for this entry: C#Cc1c(F)ccc2cc(O)cc(-c3ncc4c(N5CC6CCC(C5)N6)nc(OCC56CCCN5CC(F)C6)nc4c3F)c12 (stereo not given) + CC(Nc1ccc2c(c1)OCCn1cc(N3C(=O)OCC3C(F)F)nc1-2)C(N)=O
Given back: 54.6
